Assay Notes: Antioxidant activity assessed as DPPH radical scavenging activity at 10 uM relative to control
Type: functional
// Activity lookup, one value per entry
I only need the number, in %, no unit after it.

Compound: O=C(Cn1c(=O)c(-c2ccc(O)c(O)c2)nc2ccccc21)NS(=O)(=O)C(F)(F)F
Activity / %: 81.4
//
Compound: O=C(Cn1c(=O)c(/C=C/c2ccc(O)cc2)nc2ccccc21)NS(=O)(=O)C(F)(F)F
Activity / %: 13.2
//
Compound: O=C(Cn1c(=O)c(/C=C/c2ccccc2)nc2ccccc21)NS(=O)(=O)C(F)(F)F
Activity / %: 6.4
//
Compound: O=C(O)Cn1c(=O)c(/C=C/c2ccc(O)c(O)c2)nc2ccccc21
Activity / %: 46
//
Compound: Cc1c(C)c2c(c(C)c1O)CCC(C)(C(=O)O)O2 (stereo not drawn)
Activity / %: 77.9
//
Compound: COc1cc(/C=C/c2nc3ccccc3n(CC(=O)O)c2=O)ccc1O
Activity / %: 44.4
//
Compound: COc1cc(/C=C/c2nc3ccccc3n(CC(=O)NS(=O)(=O)C(F)(F)F)c2=O)ccc1O
Activity / %: 52.2

Please find the next compound below.
### Prompt Find the recorded Activity belonging to O=C(Cn1c(=O)c(/C=C/c2ccc(O)c(O)c2)nc2ccccc21)NS(=O)(=O)C(F)(F)F and report it.
### Response 82.1

---

Organism: Rattus norvegicus
Assay Notes: Selectivity index, ratio of IC50 for Wistar rat kidney ALR1 to IC50 for Wistar rat lens ALR2
Overview of reported Ratio IC50 across a group of molecules:
Answer field: number only, no words.

Here are 2 molecules together with their reported answers.
Smiles Structure: O=C(Cn1c(=O)c(/C=C/c2ccc(O)c(O)c2)nc2ccccc21)NS(=O)(=O)C(F)(F)F
Assay Result: 91.6
--
Smiles Structure: O=C(Cn1c(=O)c(/C=C/c2ccc(F)cc2)nc2ccccc21)NS(=O)(=O)C(F)(F)F
Assay Result: 2.05

### Prompt Data request, read-out Ratio IC50, for COc1ccc(/C=C/c2nc3ccccc3n(CC(=O)NS(=O)(=O)C(F)(F)F)c2=O)cc1OC
### Response 2.67

Reference for the values: ChEMBL document CHEMBL4400570
